Test system: Cyberlindnera jadinii
experimental_protocol: Antifungal activity against Cyberlindnera jadinii NRRL Y-900 after 24 hr by NCCLS broth microdilution method
Type: functional
test_conditions: Williopsis jadinii, NRRL Y-900, 24 h
measurement_type: MIC (µg/mL)
Respond numerically; units are µg/mL and should not be typed.

Query block: Kindly state the measured MIC obtained for `O=C(N/N=C/c1ccco1)c1ccc(F)cc1` with Cyberlindnera jadinii.
Result block: 500

Query block: Please give the result for CC(=O)N1N=C(c2ccc(F)cc2)OC1c1ccc(N(C)C)cc1 (stereo not given) too.
Result block: 500

Query block: What about this compound? `O=C(N/N=C/c1ccc(F)cc1)c1ccc(F)cc1`
Result block: 500

Query block: Entry to check: `O=C(N/N=C/c1ccc(Br)s1)c1ccc(F)cc1`
Result block: 250

Query block: Now the same for `O=C(N/N=C/c1ccccc1)c1ccc(F)cc1`
Result block: 500

Query block: Thanks! And CC(=O)N1N=C(c2ccc(F)cc2)OC1/C=C/c1ccc(N(C)C)cc1 (stereo not given) ?
Result block: 250

Query block: Ok, now `COc1ccc(/C=N/NC(=O)c2ccc(F)cc2)cc1O`
Result block: 500

Query block: And CC(=O)N1N=C(c2ccc(F)cc2)OC1c1ccc(Br)cc1 (stereo not given) ?
Result block: 500

Query block: CC(=O)N1N=C(c2ccc(F)cc2)OC1c1ccccc1 (stereo not given) ?
Result block: 1000

Query block: Proceed to `O=C(N/N=C/c1ccc(O)cc1)c1ccc(F)cc1`
Result block: 500
